Target: RORγ (UniProt P51449)
Sequence (P51449 1-518): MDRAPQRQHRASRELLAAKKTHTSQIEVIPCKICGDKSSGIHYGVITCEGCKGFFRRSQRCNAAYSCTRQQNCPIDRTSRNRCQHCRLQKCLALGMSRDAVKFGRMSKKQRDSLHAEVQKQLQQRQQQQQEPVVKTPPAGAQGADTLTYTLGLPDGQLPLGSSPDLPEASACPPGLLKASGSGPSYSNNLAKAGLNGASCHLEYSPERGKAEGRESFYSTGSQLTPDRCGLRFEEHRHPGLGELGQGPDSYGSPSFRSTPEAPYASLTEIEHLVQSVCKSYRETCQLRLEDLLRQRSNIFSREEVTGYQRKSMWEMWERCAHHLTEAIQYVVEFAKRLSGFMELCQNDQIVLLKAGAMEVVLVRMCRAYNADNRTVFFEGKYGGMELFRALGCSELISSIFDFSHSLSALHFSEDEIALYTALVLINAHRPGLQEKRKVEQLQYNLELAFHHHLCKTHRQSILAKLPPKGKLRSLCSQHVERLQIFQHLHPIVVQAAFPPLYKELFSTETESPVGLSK
Assay: RORγ Gal4 Reporter Gene Assay in 293T cells (firefly and renilla luciferase)
Format: cell-based, human
Details: second value of the cell; Gal4 reporter gene assay in 293T cells, firefly luciferase
Endpoint name: pIC50 (FF)

Cc1c(C(=O)NC2COC2)cc(-c2cc(C(C)(C)C)cc(C(C)(C)C)c2)n1CC1Cc2ccccc2C1
6.5
Cc1c(C(=O)NCC2(O)CCOCC2)cc(-c2cc(C(C)(C)C)cc(C3(C)CC3)c2)n1CC1CCCCC1
7.8
Cc1c(C(=O)NCCC(C)(C)C(=O)O)cc(-c2ccc(S(=O)(=O)NC(C)(C)C)c(C(F)F)c2)n1CC1CCCCC1
7.5
Cc1c(C(=O)NCC(C)(C)O)cc(-c2cc(C(C)(C)C)nc3ccccc23)n1CC1CCCCC1
6.6
CCC(C)(C)NS(=O)(=O)c1ccc(-c2cc(C(=O)NC3CCOCC3)c(C)n2CC2CCC2)cc1C(F)(F)F
7.6
Cc1c(C(=O)NCCC(=O)O)cc(-c2cc(C(C)(C)C)c3c(c2)C2(CCO3)CC2)n1CC1CCCCC1
7.0
Cc1c(C(=O)NCCN2CCN(S(C)(=O)=O)CC2)cc(-c2cc(C(C)(C)C)cc(C3(C)CC3)c2)n1CC1CCCCC1
6.5
Cc1c(C(=O)NCCC(C)(C)C(=O)O)cc(-c2ccc(-c3ccnn3C(C)C)c(C(C)(C)C)c2)n1CC1CCCCC1
7.7
Cc1c(C(=O)N[C@H]2C[C@H](C(=O)O)C2)cc(-c2ccc(S(=O)(=O)NC(C)(C)C)c3sccc23)n1CC1CCCCC1
6.9
Cc1c(C(=O)N[C@@H]2CCCOC2)cc(-c2ccc(S(=O)(=O)NC(C)(C)C)c(C(F)(F)F)c2)n1CC1CCCCC1
7.1
Cc1c(C(=O)NCCc2noc(=O)[nH]2)cc(-c2ccc(S(=O)(=O)NC(C)(C)C)c(C(C)(C)O)c2)n1CC1CCCCC1
6.4
Cc1c(C(=O)NCC(C)(C)O)cc(-c2cccc3c(S(=O)(=O)NC(C)(C)C)cccc23)n1CC1CCCCC1
6.9
Cc1c(C(=O)NC2CCOCC2)cc(-c2cc(F)c(NS(=O)(=O)C(C)(C)C)c(C(F)(F)F)c2)n1CC1CCCCC1
6.4

* * *

molecular target: RORγ (UniProt P51449); assay: RORγ Gal4 Reporter Gene Assay in 293T cells (firefly and renilla luciferase); format: cell-based, human; settings: second value of the cell; Gal4 reporter gene assay in 293T cells, firefly luciferase
Endpoint name: pIC50 (FF)

Cc1c(C(=O)NC2CC2)cc(-c2cc(C(C)(C)C)c3c(c2)C2(CCO3)CC2)n1CC1CCCCC1 [1/92]
7.0
Cc1c(C(=O)NC2CCOCC2)cc(-c2ccc(S(=O)(=O)NC(C)(C)C)c(C(F)(F)F)c2)n1CC1(C)CCCC1 [17/176]
7.1
CNC(=O)C(C)(C)CNC(=O)c1cc(-c2ccc(S(=O)(=O)NC(C)(C)C)c(C(F)(F)F)c2)n(CC2CCCCC2)c1C [17/204]
6.7
Cc1c(C(=O)NC2CCOCC2)cc(-c2ccc(S(=O)(=O)NC(C)C)c(C(F)(F)F)c2)n1CC1CCCCC1 [17/112]
7.4
Cc1c(C(=O)N2CCC(C)(C(=O)O)CC2)cc(-c2cc(C(C)(C)C)c3c(c2)C2(CCO3)CC2)n1CC1CCCCC1 [17/54]
7.1
Cc1c(C(=O)NC2COC2)cc(-c2cnc(OCC(C)(C)C)c(C(F)(F)F)c2)n1CC1CCCCC1 [9/13]
6.0

* * *

molecular target: RORγ (UniProt P51449); assay: RORγ Gal4 Reporter Gene Assay in 293T cells (firefly and renilla luciferase); type: cell-based, human; settings: second value of the cell; Gal4 reporter gene assay in 293T cells, firefly luciferase
Endpoint name: pIC50 (FF)

Cc1c(C(=O)NC2COC2)cc(-c2cc(C3(C)CC3)cc(C3(C)CC3)c2)n1CC1CCCCC1
7.5
Cc1c(C(=O)NC2COC2)cc(-c2cc(C(C)(C)C)cc(C(C)(C)C)c2)n1CC1CCCCCC1
7.3
Cc1c(C(=O)NC2CCOCC2)cc(-c2ccc(S(=O)(=O)NCC(F)(F)F)c(C(F)(F)F)c2)n1CC1CCCCC1
8.0
Cc1c(C(=O)NC2CCOCC2)cc(-c2ccc(S(=O)(=O)NC(C)(C)C)c3ncccc23)n1CC1CCCCC1
6.7
Cc1c(C(=O)NC2COC2)cc(-c2cc(C(C)(C)C)cc(C(C)(C)C)c2)n1S(=O)(=O)N1CCCCC1
6.8
Cc1c(C(=O)NCC(C)(C)O)cc(-c2cc(C(=O)NC(C)C)cc(C(C)(C)C)c2)n1CC1CCCCC1
6.9
CC(=O)NC(C)(C)CNC(=O)c1cc(-c2cc(C(C)(C)C)c3c(c2)C2(CCO3)CC2)n(CC2CCCCC2)c1C
7.4
Cc1c(C(=O)NC2CCOCC2)cc(-c2ccc(C(NC(C)(C)C)C(F)(F)F)c(C(F)(F)F)c2)n1CC1CCCCC1 (stereo not drawn)
6.3
Cc1c(C(=O)NCCC(C)(C)C(=O)O)cc(-c2ccc(-c3ccnn3C(C)C)c(C(F)(F)F)c2)n1CC1CCCCC1
6.6
Cc1c(C(=O)NC2COC2)cc(-c2cc(OCC(C)(C)C)nc(C(F)(F)F)c2)n1CC1CCCCC1
6.1
Cc1c(C(=O)NC2CCOCC2)cc(-c2ccc(CN3CCOCC3)c(C(F)(F)F)c2)n1CC1CCCCC1
6.2
Cc1c(C(=O)N2CCC(C)(O)CC2)cc(-c2ccc(S(=O)(=O)NC(C)(C)C)c(C(C)(C)C)c2)n1CC1CCCCC1
6.8
Cc1c(C(=O)NCC2CCN(S(C)(=O)=O)CC2)cc(-c2cc(C(C)(C)C)cc(C3(C)CC3)c2)n1CC1CCCCC1
7.3
Cc1c(C(=O)NCC(C)(C)O)cc(-c2ccc(S(=O)(=O)NC(C)(C)C)c3c(F)cccc23)n1CC1CCCCC1
7.0
Cc1c(C(=O)NC2CCC(C)(C(=O)O)CC2)cc(-c2ccc(S(=O)(=O)NC(C)(C)C)c(C(F)(F)F)c2)n1CC1CCCCC1 (stereo not drawn)
7.2

* * *

target: RORγ (UniProt P51449); experiment: RORγ Gal4 Reporter Gene Assay in 293T cells (firefly and renilla luciferase); format: cell-based, human; conditions: third value of the cell; Gal4 reporter gene assay in 293T cells, renilla normalised luciferase
Endpoint name: pIC50 (REN)

Cc1c(C(=O)NCCc2nnn[nH]2)cc(-c2cc(C(C)(C)C)cc(C3(C)CC3)c2)n1CC1CCCCC1 [17/70]
7.9
Cc1c(C(=O)NCCc2nn[nH]n2)cc(-c2ccc(S(=O)(=O)NC(C)(C)C)c(C(C)(C)C)c2)n1CC1CCCCC1 [17/334]
5.9
Cc1c(C(=O)NC2CCNC(=O)C2)cc(-c2ccc(S(=O)(=O)NC(C)(C)C)c(C(C)(C)C)c2)n1CC1CCCCC1 (stereo not shown) [17/89]
6.9
Cc1c(C(=O)NC2COC2)cc(-c2cc(OCC(C)(C)C)nc(C(F)(F)F)c2)n1CC1CCCCC1 [1/16]
5.8
Cc1c(C(=O)NCCC(=O)O)cc(-c2cc(C(C)(C)C)cc(C(C)(C)C)c2)n1CC1CCCCC1 [1/68]
6.8
Cc1c(C(=O)NCCC(C)(C)C(=O)O)cc(-c2cc(C(C)(C)O)cc(C(F)(F)F)c2)n1CC1CCCCC1 [17/308]
6.4
Cc1c(C(=O)NCC(C)(C)O)cc(-c2cc(C(=O)NC(C)C)cc(C3(C)CC3)c2)n1CC1CCCCC1 [1/112]
7.1

* * *

molecular target: RORγ (UniProt P51449); assay: RORγ Gal4 Reporter Gene Assay in 293T cells (firefly and renilla luciferase); format: cell-based, human; conditions: second value of the cell; Gal4 reporter gene assay in 293T cells, firefly luciferase
Endpoint name: pIC50 (FF)

Example compounds with recorded pIC50 (FF):
Cc1c(C(=O)N[C@H]2C[C@H](C(=O)O)C2)cc(-c2cc(C(F)(F)F)cc(C3(C)CC3)c2)n1CC1CCCCC1 [17/300]
7.3
Cc1c(C(=O)NCC2(O)COC2)cc(-c2cc(C(C)(C)C)c3c(c2)C2(CCO3)CC2)n1CC1CCCCC1 [17/36]
6.9
Cc1c(C(=O)NC2CCOCC2)cc(-c2ccc(C(=O)N(C)C)c(C(C)(C)C)c2)n1CC1CCCCC1 [6/5]
6.5
Cc1c(C(=O)N[C@H]2CCOC2)cc(-c2cc(C(C)(C)C)cc(C3(C)CC3)c2)n1CC1CCCCC1 [17/65]
7.7
CCn1cc(-c2ccc(-c3cc(C(=O)NC4CCOCC4)c(C)n3CC3CCCCC3)cc2C(C)(C)C)cn1 [26/3]
6.6

[a] Cc1c(C(=O)NC2CCOCC2)cc(-c2ccc(S(=O)(=O)NC(C)(C)C)c3ccccc23)n1CC1CCCCC1 [17/236]
[b] Cc1c(C(=O)NCCc2nn[nH]n2)cc(-c2ccc(S(=O)(=O)NC(C)(C)C)c(C(F)(F)F)c2)n1CC1CCCCC1 [17/335]
Task item: Problem: Given the entries a and b , determine which has the lower reported pIC50 (FF). Choose, then provide that item's label.
Reply: b

These measurements were taken from patent US9815851B2.
